These entries and their values trace back to patent US5789412A.

# SYSTEM_TESTED: human 5HT1A receptor (Homo sapiens)
# Construct: host or cells: HeLa HA7
# Sequence (P08908 whole entry): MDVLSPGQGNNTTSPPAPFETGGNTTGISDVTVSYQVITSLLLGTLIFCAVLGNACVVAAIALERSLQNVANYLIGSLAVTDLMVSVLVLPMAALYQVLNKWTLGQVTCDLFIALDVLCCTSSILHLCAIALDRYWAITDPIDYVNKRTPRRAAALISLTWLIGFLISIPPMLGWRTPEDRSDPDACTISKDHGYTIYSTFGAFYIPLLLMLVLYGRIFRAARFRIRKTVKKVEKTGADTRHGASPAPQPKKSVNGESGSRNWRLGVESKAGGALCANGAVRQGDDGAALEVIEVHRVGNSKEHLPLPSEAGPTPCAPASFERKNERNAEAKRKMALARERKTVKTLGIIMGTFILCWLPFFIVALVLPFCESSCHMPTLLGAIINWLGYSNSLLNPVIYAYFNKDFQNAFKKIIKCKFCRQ
# EXPERIMENTAL_DETAILS: Binding to human 5HT1A receptor ([3H]-8OH-DPAT displacement, HeLa HA7 cell line)
# EXPERIMENTAL_CONDITIONS: [3H]-8OH-DPAT 1 nM; HeLa HA7 cell line; read-out: 5HT1A Ki (affinity for the receptors concerned)
pKi: −log10 of the molar value. Counter-ions that a name gives are not always drawn.
OBSERVATION_TYPE: pKi

* COc1ccc(NC(=O)N2CCN(c3ccc4c(c3)OCO4)CC2)cc1N1CCN(C)CC1 [Example 7, difumarate] | 6.10
* COc1ccc(NC(=O)N2CCN(c3cccc(C)c3C)CC2)cc1N1CCN(C)CC1 [Example 5, fumarate] | 6.25
* COc1ccc(N2CCN(C(=O)Nc3ccc(OC)c(N4CCN(C)CC4)c3)CC2)cc1 [Example 3, fumarate] | 6.00
* COc1ccc(NC(=O)N2CCN(c3ccccc3C#N)CC2)cc1N1CCN(C)CC1 [Example 8, fumarate] | 6.15
* COc1ccc(NC(=O)N2CCN(c3ccc([N+](=O)[O-])cc3)CC2)cc1N1CCN(C)CC1 | 6.34
* COc1ccc(NC(=O)N2CCN(c3ccccc3C)CC2)cc1N1CCN(C)CC1 | 6.40
* CN1CCN(c2cccc3ccc(OC(=O)N4CCN(c5ccccc5)CC4)cc23)CC1 | 7.80
* Cc1ccccc1N1CCN(C(=O)COc2ccc3cccc(N4CCN(C)CC4)c3c2)CC1 | 7.30
